# MEASUREMENT NOTES: Cmax in mouse at 10 mg/kg, po
# Assay type: ADME, organism-based
# Set-up: dose 10 mg/kg, route oral
# CONDITION PARAMETERS: in vivo
Listed below: Cmax values for each entry.
All answers are understood in ng/mL, so give the number only.

C=CC[C@]1(O)CC[C@H]2[C@@H]3CCC4=CC(=O)CCC4=C3[C@@H](c3ccc(P(=O)(c4ccccc4)c4ccccc4)cc3)C[C@@]21C    1850

# next molecule below
Task item: In one line, give reported Cmax of the entry `CC#C[C@]1(O)CC[C@H]2[C@@H]3CCC4=CC(=O)CCC4=C3[C@@H](c3ccc(N(C)C)cc3)C[C@@]21C` .
Reply: 30

* * *

# MEASUREMENT NOTES: Tmax in mouse at 2 mg/kg, iv
# Format: ADME, organism-based
# Parameters: dose 2 mg/kg, route intravenous
# CONDITION PARAMETERS: in vivo
Listed below: Tmax values for each entry.
All answers are understood in min, so give the number only.

C=CC[C@]1(O)CC[C@H]2[C@@H]3CCC4=CC(=O)CCC4=C3[C@@H](c3ccc(P(=O)(c4ccccc4)c4ccccc4)cc3)C[C@@]21C    4.8

# next compound below
Task item: In one line, give reported Tmax of the entry `CC#C[C@]1(O)CC[C@H]2[C@@H]3CCC4=CC(=O)CCC4=C3[C@@H](c3ccc(N(C)C)cc3)C[C@@]21C` .
Reply: 4.8

* * *

# STUDY TARGET: Glucocorticoid receptor (Homo sapiens)
# Sequence (P04150 whole entry): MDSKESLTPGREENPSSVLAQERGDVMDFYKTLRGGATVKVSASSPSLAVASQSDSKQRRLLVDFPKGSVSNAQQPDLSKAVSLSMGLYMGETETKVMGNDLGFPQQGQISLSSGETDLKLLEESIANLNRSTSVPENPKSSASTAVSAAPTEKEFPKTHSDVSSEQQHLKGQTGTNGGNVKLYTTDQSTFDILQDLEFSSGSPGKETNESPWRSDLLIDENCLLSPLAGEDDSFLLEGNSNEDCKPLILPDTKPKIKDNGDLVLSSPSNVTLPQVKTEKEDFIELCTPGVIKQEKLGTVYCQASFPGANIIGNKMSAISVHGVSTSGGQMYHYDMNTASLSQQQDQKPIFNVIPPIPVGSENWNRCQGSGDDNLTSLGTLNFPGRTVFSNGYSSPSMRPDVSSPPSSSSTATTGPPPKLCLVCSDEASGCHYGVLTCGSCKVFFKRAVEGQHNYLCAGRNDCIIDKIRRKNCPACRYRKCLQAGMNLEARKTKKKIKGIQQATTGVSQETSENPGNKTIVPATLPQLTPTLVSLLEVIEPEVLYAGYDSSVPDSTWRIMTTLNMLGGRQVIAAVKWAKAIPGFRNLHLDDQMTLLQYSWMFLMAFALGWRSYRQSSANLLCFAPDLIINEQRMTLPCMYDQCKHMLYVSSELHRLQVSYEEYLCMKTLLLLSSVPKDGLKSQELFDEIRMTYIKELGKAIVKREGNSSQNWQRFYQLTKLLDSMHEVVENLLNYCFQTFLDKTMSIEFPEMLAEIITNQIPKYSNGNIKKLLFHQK
# MEASUREMENT NOTES: Antagonist activity at glucocorticoid receptor expressed in human A549 cells assessed as inhibition of corticoid-induced transcription by glucocorticoid response element-linked luciferase reporter gene assay
TEST READOUT: pKi
# reply with the number alone; pKi is -log10 of concentration in mol/L

C=C1CCO[C@]12CC[C@H]1[C@@H]3CCC4=CC(=O)CCC4=C3[C@@H](c3ccc(P(C)(=O)OCC)cc3)C[C@@]12C (some centres undefined)    7.22
C=CC[C@]1(O)CC[C@H]2[C@@H]3CCC4=CC(=O)CCC4=C3[C@@H](c3ccc(P(=O)(c4ccccc4)c4ccccc4)cc3)C[C@@]21C    8.00
CC#C[C@]1(O)CC[C@H]2[C@@H]3CCC4=CC(=O)CCC4=C3[C@@H](c3ccc(P(=O)(c4ccccc4)c4ccccc4)cc3)C[C@@]21C    8.52
CC#C[C@]1(O)CC[C@H]2[C@@H]3CCC4=CC(=O)CCC4=C3[C@@H](c3ccc(P(=O)(OCC)OCC)cc3)C[C@@]21C    8.05
C=C1CCO[C@]12CC[C@H]1[C@@H]3CCC4=CC(=O)CCC4=C3[C@@H](c3ccc(P(=O)(OCC)OCC)cc3)C[C@@]12C    7.25

Task item: In one line, give reported pKi of the entry `C=CC[C@]1(O)CC[C@H]2[C@@H]3CCC4=CC(=O)CCC4=C3[C@@H](c3ccc(P(=O)(OCC)OCC)cc3)C[C@@]21C` .
Reply: 8.00

Task item: In one line, give reported pKi of the entry `C[C@]12C[C@H](c3ccc(P(=O)(c4ccccc4)c4ccccc4)cc3)C3=C4CCC(=O)C=C4CC[C@H]3[C@@H]1CC[C@@]2(O)c1ccccc1` .
Reply: 7.70

* * *

# MEASUREMENT NOTES: Oral bioavailability in mouse at 10 mg/kg
# Format: ADME, organism-based
# CONDITION PARAMETERS: in vivo
TEST READOUT: bioavailability (%)
All answers are understood in %, so give the number only.

CC#C[C@]1(O)CC[C@H]2[C@@H]3CCC4=CC(=O)CCC4=C3[C@@H](c3ccc(N(C)C)cc3)C[C@@]21C    31

Task item: In one line, give reported bioavailability of the entry `C=CC[C@]1(O)CC[C@H]2[C@@H]3CCC4=CC(=O)CCC4=C3[C@@H](c3ccc(P(=O)(c4ccccc4)c4ccccc4)cc3)C[C@@]21C` .
Reply: 59

Data provenance is ChEMBL document CHEMBL1139120.
